Below: a set of entries, each annotated with reported pIC50.
Target: RBDSARS-CoV-2 (SARS-CoV-2 S protein residues 319-539, C-terminal His-tag) (SARS-CoV-2, UniProt P0DTC2 319-539)
Assay: ELISA
pIC50: −log10 of the molar value.

Binder	pIC50
4P-92 (VHH) VHH: QVQLVESGGGLVQTGGSLRLSCAVSGYTFSTFPTAWFRQAPGKEREFVAGIRWNGGSRDYTEYADFVKGRFTISRDNAKNMVYLQMISLKPEDTALYYCAASHGVIDGTSANDYRYWGQGTQVTVSS	> 8.00

Let us examine a further case.
Fill in pIC50 for record 4P-3 (VHH) VHH: DVQLVESGGGLVQAGDSLRLSCAASGRTFGNYVLDWFRQAPGKEREFVASITQTGFGTYYADAVKGRFTISRDNAKNTMYLQMNSLKPEDTAVYYCAADFTAQNGGIRNPTYWGQGTQVTVSS
7.00 to 8.00
